Listed next: entries and their corresponding P.E. binding ELISA OD.
# systemName: T1, human IL-2Rβ (human, UniProt P14784 27-240, limits assumed)
# T1 construct: Recombinant protein, coated (ELISA) or immobilised on CM5 (SPR); also called hu IL-2R; interleukin 2 receptor β-chain
# T1 sequence: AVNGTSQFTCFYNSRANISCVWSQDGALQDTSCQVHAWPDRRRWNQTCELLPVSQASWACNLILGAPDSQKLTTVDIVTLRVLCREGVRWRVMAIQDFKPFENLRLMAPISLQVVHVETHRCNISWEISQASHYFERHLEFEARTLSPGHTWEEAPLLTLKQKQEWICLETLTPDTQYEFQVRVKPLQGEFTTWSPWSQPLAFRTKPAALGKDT
# assayName: P.E. binding ELISA on coated protein
# Protocol: In a binding ELISA, human or mouse IL-2Rα, IL-2Rβ and IL-2Rγ proteins were coated directly on maxisorp microtiter plates overnight at 4° C. Free binding sites were blocked using 4% Marvel in PBS for 1 hour. Next, 1:5 dilution of P.E. in 1% Marvel/PBS were added to wells and incubated for 1 hour. […] Binding specificity was determined based on O.D. at 450 nm values compared to negative controls.

binder	P.E. binding ELISA OD [OD450 nm]
FJ1427 P035MP03C06 (VHH, soluble VHH in periplasmic extract; also called clone nr) VHH: QVQLVESGGGLVQAGGSLRLACALSGDVFVRYTMAWFRQAPGKEREFVASVTDSGRTTDYVASVQGRFTVSRDNNKNTVYLQMNSLKPEDTAVYYCAANTDYFQIRSLDRNTWGQGTQVTVSS	1.21
FJ1427_P035MP03G03 (VHH, soluble VHH in periplasmic extract; also called clone nr) VHH: QVQLVESGGGLVQPGGSLGLSCAASGFTFDNYAMSWVRQAPGKGLEWVSSITGAGRGTHYADSVKGRFTISRDNAKNTLYLQMNSLKPEDTAVYYCAKYSSSTYYPPTPARGTDYRGPGTQVTVSS	0.137
FJ1427_P035MP06E02 (VHH, soluble VHH in periplasmic extract; also called clone nr) VHH: QVQLVESGGGLVQAGGSLRLSCAVSGDVFVRYTMAWFRQAPGKEREFVATVTDSGRTTEYVDSVKGRFTVSRDNAKNTVYLQMNNLKPEDTAVYYCAANTDYFRIRSLDANTWGQGTQVTVSS	0.148
FJ1427_P035MP03G05 (VHH, soluble VHH in periplasmic extract; also called clone nr) VHH: EVQLVESGGGLVQIGGSLRLSCAASGRTFSSITMAYFRQVPGKEREWVAGINFSGTRTFYADSVKGRFLISRDDAKSTMYLQMNSLKPEDTAVYYCAASPRGFYGPGNALYDYWGQGTQVTVSS	0.914
